Reported Tmax values for the following molecules.
experiment: Tmax in pre-cannulated Sprague-Dawley rat at 2 mg/kg, iv after […] to 8 hrs by LC-MS/MS analysis; assay type: ADME, organism-based; details: in vivo
The reply should contain only the number, in min.

These recorded examples may help you get a feel for the data.
{"smiles_entry": "C[C@H](N)[C@@H](O)C[C@@H](O)CCCCCCCCCCCCC(F)(F)F", "Tmax (min)": 4.8}
{"smiles_entry": "CCCCCCCCCCCCC(F)(F)[C@H](O)C[C@H](O)[C@H](C)N", "Tmax (min)": 4.8}

Turning now to a further molecule:
The reported value for CCCCCCCCCCCCC[C@H](O)C[C@H](O)[C@H](C)N in terms of Tmax is 4.8

----------
test: Tmax in pre-cannulated Sprague-Dawley rat at 10 mg/kg administered via oral gavage after 0.5 to 24 hrs by LC-MS/MS analysis; assay type: ADME, organism-based; settings: in vivo
property_measured: Tmax (h)
The reply should contain only the number, in h.

{"smiles_entry": "CCCCCCCCCCCCC(F)(F)[C@H](O)C[C@H](O)[C@H](C)N", "Tmax, h": 8}
{"smiles_entry": "CCCCCCCCCCCCC[C@H](O)C[C@H](O)[C@H](C)N", "Tmax, h": 8}

Turning now to a further compound:
The reported value for C[C@H](N)[C@@H](O)C[C@@H](O)CCCCCCCCCCCCC(F)(F)F in terms of Tmax is 12

----------
assay: Cmax in pre-cannulated Sprague-Dawley rat at 10 mg/kg administered via oral gavage after 0.5 to 24 hrs by LC-MS/MS analysis; format: ADME, organism-based; design: dose 10 mg/kg, route oral; conditions: in vivo
Reported Cmax values for the following compounds.

These recorded examples may help you get a feel for the data.
{"smiles_entry": "CCCCCCCCCCCCC(F)(F)[C@H](O)C[C@H](O)[C@H](C)N", "Cmax": "119 nM"}
{"smiles_entry": "CCCCCCCCCCCCC[C@H](O)C[C@H](O)[C@H](C)N", "Cmax": "84.6 nM"}

Turning now to a further compound:
The reported value for C[C@H](N)[C@@H](O)C[C@@H](O)CCCCCCCCCCCCC(F)(F)F in terms of Cmax is 193 nM

----------
experiment: Drug uptake in tumor of human PC3 cells xenografted in athymic NCr-nu/nu mouse at 10 mg/kg, qd administered via oral gavage measured 24 hrs post last dose by LC-MS/MS analysis; format: ADME, organism-based, Neoplasm, PC-3; details: read-out: Drug uptake
Reported concentration at 24 h values for the following molecules.
The reply should contain only the number, in µM.

These recorded examples may help you get a feel for the data.
{"smiles_entry": "C[C@H](N)[C@@H](O)C[C@@H](O)CCCCCCCCCCCCC(F)(F)F", "units_of_measure": "µM", "reading": 25.3}
{"smiles_entry": "CCCCCCCCCCCCC[C@H](O)C[C@H](O)[C@H](C)N", "units_of_measure": "µM", "reading": 1.6}

The reported value for CCCCCCCCCCCCC(F)(F)[C@H](O)C[C@H](O)[C@H](C)N in terms of concentration at 24 h is 23.6

----------
Reported Cmax values for the following compounds.
assay: Cmax in pre-cannulated Sprague-Dawley rat at 2 mg/kg, iv after […] to 8 hrs by LC-MS/MS analysis; type: ADME, organism-based; parameters: dose 2 mg/kg, route intravenous; details: in vivo
The reply should contain only the number, in nM.

These recorded examples may help you get a feel for the data.
{"smiles_entry": "CCCCCCCCCCCCC(F)(F)[C@H](O)C[C@H](O)[C@H](C)N", "units_of_measure": "nM", "reading": 4400}
{"smiles_entry": "CCCCCCCCCCCCC[C@H](O)C[C@H](O)[C@H](C)N", "units_of_measure": "nM", "reading": 2450}

Turning now to a further compound:
The reported value for C[C@H](N)[C@@H](O)C[C@@H](O)CCCCCCCCCCCCC(F)(F)F in terms of Cmax is 1680

The measurements presented in this section are drawn from ChEMBL document CHEMBL3813692.
